Recorded EC50 values for a group of compounds are listed next.
- System: BV-2 (mouse microglia) cells
- assay_info: progranulin secretion from BV-2 cells, mouse progranulin ELISA of conditioned media
- Type: cell-based
- experimental_conditions: BV-2 cells, 16 hours incubation, 8-point curves starting at 10 μM; assay run v2 (same protocol, different assay); read-out: PRGN v2 (EC50, progranulin secretion)

- compound: "COc1ccc([C@H]2c3ccccc3CCN2C(=O)O[C@@H]2CN3CCC2CC3)cn1 [Compound 1028]"
  study_system: "BV-2 (mouse microglia) cells"
  measurement_name: "EC50"
  assay_value: "> 10 µM"

query: Given O=C(O[C@@H]1CN2CCC1CC2)N1CCc2ccccc2[C@@H]1c1cc(F)cc(F)c1 [Compound 1040] , state its recorded EC50.
result: > 10 µM

query: Given CC1(C)[C@@H](OC(=O)N2CCc3ccccc3[C@@H]2c2ccc(F)cc2)C2CCN1CC2 [Compound 1144] , state its recorded EC50.
result: > 10 µM

query: Given O=C(O[C@@H]1CN2CCC1CC2)N1CCc2ccccc2[C@H]1c1cccc(F)c1 [Compound 1021] , state its recorded EC50.
result: 1.03 µM

* * *

- System: BV-2 (mouse microglia) cells
- assay_info: progranulin secretion from BV-2 cells, mouse progranulin ELISA of conditioned media
- Format: cell-based
- experimental_conditions: Mus musculus, BV-2, 16 h, BV-2 cells, 16 hours incubation, 8-point curves starting at 10 μM; assay run v2 (same protocol, different assay); read-out: PRGN v2 (EC50, progranulin secretion)
pEC50: −log10 of the molar value.
Recorded pEC50 values for a group of molecules are listed next.

Some solved cases for reference:
- smiles_record: "COc1ccc([C@@H]2c3ccccc3CCN2C(=O)C[C@@H]2CN3CCC2CC3)cc1F"
  pEC50: "< 5.00"
- smiles_record: "O=C(N[C@@H]1CN2CCC1CC2)N1CCc2ccccc2[C@@H]1c1cnc2nccn2c1"
  pEC50: "< 5.00"
- smiles_record: "CN(C(=O)N1CCc2ccccc2[C@@H]1c1ccc(F)cc1)[C@@H]1CN2CCC1CC2"
  pEC50: 5.99
- smiles_record: "O=C(N[C@@H]1CN2CCC1CC2)N1CCc2ccccc2[C@H]1c1ccc(OC2CC2)cc1"
  pEC50: "< 5.00"

query: Given O=C(N[C@@H]1CN2CCC1CC2)N1CCc2ccccc2[C@H]1c1ccc(-n2cnnc2)cc1 , state its recorded pEC50.
result: < 5.00

query: Given O=S(=O)(C[C@H]1CN2CCC1CC2)N1CCc2ccccc2[C@@H]1c1ccc(F)cc1 , state its recorded pEC50.
result: 5.36

query: Given O=S(=O)(C[C@H]1CN2CCC1CC2)N1CCc2ccccc2[C@@H]1c1ccccc1 , state its recorded pEC50.
result: < 5.00

query: Given O=C(N[C@@H]1CN2CCC1CC2)N1CCc2ccccc2[C@H]1c1cccc(F)c1 , state its recorded pEC50.
result: < 5.00

query: Given O=C(N[C@@H]1CN2CCC1CC2)N1CCc2ccccc2[C@@H]1c1ccc(-n2cnnc2)cc1 , state its recorded pEC50.
result: < 5.00

* * *

- Tested on: BV-2 (mouse microglia) cells
- assay_info: progranulin secretion from BV-2 cells, mouse progranulin ELISA of conditioned media
- Type: cell-based
- experimental_conditions: BV-2 cells, 16 hours incubation, 8-point curves starting at 10 μM; assay run v1; read-out: PRGN v1 (EC50, progranulin secretion)
pEC50: −log10 of the molar value.
measurement_name: pEC50

Some solved cases for reference:
- molecule: "O=C(O[C@@H]1CN2CCC1CC2)N1CCc2ccccc2[C@H]1c1ccc2ncsc2c1"
  study_system: "BV-2 (mouse microglia) cells"
  pEC50: "< 5.00"
- molecule: "O=C(O[C@@H]1CN2CCC1CC2)N1CCc2ccccc2[C@@H]1c1ccc2ncsc2c1"
  study_system: "BV-2 (mouse microglia) cells"
  pEC50: "< 5.00"
- molecule: "COc1ccc([C@@H]2c3ccccc3CCN2C(=O)O[C@@H]2CN3CCC2CC3)cn1"
  study_system: "BV-2 (mouse microglia) cells"
  pEC50: "< 5.00"
- molecule: "O=C(O[C@@H]1CN2CCC1CC2)N1CCc2ccccc2[C@@H]1c1ccnc(O)c1"
  study_system: "BV-2 (mouse microglia) cells"
  pEC50: "< 5.00"
- molecule: "O=C(O[C@@H]1CN2CCC1CC2)N1CCc2ccccc2[C@@H]1c1cccc(F)c1F"
  study_system: "BV-2 (mouse microglia) cells"
  pEC50: 6.48
- molecule: "O=C(O[C@@H]1CN2CCC1CC2)N1CCc2ccccc2[C@@H]1c1cc2ccccc2s1"
  study_system: "BV-2 (mouse microglia) cells"
  pEC50: "< 5.50"
- molecule: "O=C(O[C@@H]1CN2CCC1CC2)N1CCc2ccccc2[C@H]1c1ccc2scnc2c1"
  study_system: "BV-2 (mouse microglia) cells"
  pEC50: "< 5.00"
- molecule: "O=C(O[C@@H]1CN2CCC1CC2)N1CCc2ccccc2[C@H]1c1cccc(F)c1"
  study_system: "BV-2 (mouse microglia) cells"
  pEC50: "< 5.00"

query: Given COc1ccc([C@H]2c3ccccc3CCN2C(=O)O[C@@H]2CN3CCC2CC3)cn1 , state its recorded pEC50.
result: < 5.00

query: Given O=C1CCC([C@@H]2c3ccccc3CCN2C(=O)O[C@@H]2CN3CCC2CC3)CN1 (stereo partly shown) , state its recorded pEC50.
result: 5.02

query: Given O=C(N[C@@H]1CN2CCC1CC2)N1CCc2ccccc2[C@@H]1c1ccc2cccn2c1 , state its recorded pEC50.
result: 5.25

query: Given O=C(O[C@@H]1CN2CCC1CC2)N1CCc2ccccc2[C@@H]1c1cccc(F)c1 , state its recorded pEC50.
result: 5.86

query: Given COc1ccc([C@@H]2c3ccccc3CCN2C(=O)O[C@@H]2CN3CCC2CC3)cc1 , state its recorded pEC50.
result: 5.36

query: Given COc1cc([C@@H]2c3ccccc3CCN2C(=O)O[C@@H]2CN3CCC2CC3)ccn1 , state its recorded pEC50.
result: < 5.00

query: Given COc1ccc([C@H]2c3ccccc3CCN2C(=O)O[C@@H]2CN3CCC2CC3)cc1 , state its recorded pEC50.
result: 5.54

query: Given O=C(O[C@@H]1CN2CCC1CC2)N1CCc2ccccc2[C@H]1c1cccc(F)c1F , state its recorded pEC50.
result: < 5.00

* * *

- Tested on: BV-2 (mouse microglia) cells
- assay_info: progranulin secretion from BV-2 cells, mouse progranulin ELISA of conditioned media
- Format: cell-based
- experimental_conditions: BV-2 cells, 16 hours incubation, 8-point curves starting at 10 μM; assay run v1; read-out: PRGN v1 (EC50, progranulin secretion)
pEC50: −log10 of the molar value.
measurement_name: pEC50

- compound: "COc1cc([C@H]2c3ccccc3CCN2C(=O)O[C@@H]2CN3CCC2CC3)ccn1"
  pEC50: "< 5.00"
- compound: "O=C(O[C@@H]1CN2CCC1CC2)N1CCc2ccccc2[C@@H]1c1ccc2scnc2c1"
  pEC50: "< 5.00"
- compound: "O=C(O[C@@H]1CN2CCC1CC2)N1CCc2ccccc2[C@H]1c1cc2ccccc2s1"
  pEC50: "< 5.50"

query: Given O=C(O[C@@H]1CN2CCC1CC2)N1CCc2ccccc2[C@H]1c1ccnc(O)c1 , state its recorded pEC50.
result: < 5.00

query: Given O=C(O[C@@H]1CN2CCC1CC2)N1CCc2ccccc2[C@@H]1c1ccc(F)cc1F , state its recorded pEC50.
result: 6.36

query: Given O=C1CCC([C@H]2c3ccccc3CCN2C(=O)O[C@@H]2CN3CCC2CC3)CN1 (stereo partly shown) , state its recorded pEC50.
result: < 5.00

query: Given O=C(O[C@@H]1CN2CCC1CC2)N1CCc2ccccc2[C@H]1c1ccc(F)cc1F , state its recorded pEC50.
result: < 5.00

* * *

- System: BV-2 (mouse microglia) cells
- assay_info: progranulin secretion from BV-2 cells, mouse progranulin ELISA of conditioned media
- Format: cell-based
- experimental_conditions: BV-2 cells, 16 hours incubation, 8-point curves starting at 10 μM; assay run v2 (same protocol, different assay); read-out: PRGN v2 (EC50, progranulin secretion)
pEC50: −log10 of the molar value.
measurement_name: pEC50

Some solved cases for reference:
- molecule: "COc1ccc([C@H]2c3ccccc3CCN2C(=O)O[C@@H]2CN3CCC2CC3)cc1"
  pEC50: 5.54
- molecule: "O=C(O[C@@H]1CN2CCC1CC2)N1CCc2ccccc2[C@@H]1COc1ccc(F)cc1"
  pEC50: "< 5.00"
- molecule: "O=C(O[C@@H]1CN2CCC1CC2)N1CCc2ccccc2[C@H]1c1ccc(F)cc1F"
  pEC50: 5.76

query: Given O=C(O[C@@H]1CN2CCC1CC2)N1CCc2ccccc2[C@H]1COc1ccc(F)cc1 , state its recorded pEC50.
result: < 5.00

query: Given O=C(O[C@@H]1CN2CCC1CC2)N1CCc2ccccc2[C@H]1c1cc2ccccc2s1 , state its recorded pEC50.
result: < 5.00
